The origin of these recorded values is patent US20180094062A1.

# subject of test: T1, human recombinant HER3 Extracellular Domain (HER3 ECD) (human, UniProt P21860 20-643)
# T1 construct: 68 kDa; also called human-Her3-ECD
# test description: SPR Biacore 4000 kinetic screening, antibody captured, analyte 150 nM, 25 C
Provide the reported SL (stability late) of each item.
The reply should be a number in RU, with the unit left off.

Documented SL (stability late) of anti-HER3 antibody M-08-11 (antibody, V domains shown, mouse monoclonal antibody from hybridoma, tested as hybridoma supernatant or as antibody; also called M-011) VH: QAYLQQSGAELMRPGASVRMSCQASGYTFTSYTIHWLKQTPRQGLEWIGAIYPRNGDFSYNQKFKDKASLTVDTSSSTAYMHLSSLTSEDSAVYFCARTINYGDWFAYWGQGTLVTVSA VL: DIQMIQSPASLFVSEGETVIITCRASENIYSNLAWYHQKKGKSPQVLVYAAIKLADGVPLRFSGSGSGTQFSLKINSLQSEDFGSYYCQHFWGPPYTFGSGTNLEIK : 62

Entry anti-HER3 antibody M-46-01 (antibody, V domains shown, mouse hybridoma clone) VH: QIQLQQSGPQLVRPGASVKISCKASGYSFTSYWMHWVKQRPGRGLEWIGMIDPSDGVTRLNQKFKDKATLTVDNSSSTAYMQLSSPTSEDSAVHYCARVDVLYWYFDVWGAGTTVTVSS VL: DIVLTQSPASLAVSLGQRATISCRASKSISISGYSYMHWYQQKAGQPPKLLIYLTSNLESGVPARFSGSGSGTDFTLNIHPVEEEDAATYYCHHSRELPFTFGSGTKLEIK — recorded SL (stability late) = 17

Notebook: anti-HER3 antibody M-43-01 (antibody, V domains shown, mouse hybridoma clone) VH: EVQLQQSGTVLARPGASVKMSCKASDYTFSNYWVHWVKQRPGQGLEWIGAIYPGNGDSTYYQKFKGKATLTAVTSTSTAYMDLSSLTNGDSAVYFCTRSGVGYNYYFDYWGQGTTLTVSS VL: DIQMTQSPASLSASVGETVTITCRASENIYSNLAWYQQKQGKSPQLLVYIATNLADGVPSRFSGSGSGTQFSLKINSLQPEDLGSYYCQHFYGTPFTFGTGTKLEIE , SL (stability late) read as 8

Per the record, anti-HER3 antibody M-17-02 (antibody, V domains shown, mouse hybridoma clone) VH: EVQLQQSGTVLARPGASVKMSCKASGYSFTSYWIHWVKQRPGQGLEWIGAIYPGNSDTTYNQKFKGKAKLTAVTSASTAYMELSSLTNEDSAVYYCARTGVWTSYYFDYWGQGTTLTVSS VL: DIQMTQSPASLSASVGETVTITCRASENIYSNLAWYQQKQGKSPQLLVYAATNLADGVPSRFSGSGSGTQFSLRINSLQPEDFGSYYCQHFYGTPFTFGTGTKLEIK has SL (stability late) of 10
